- TGT: CDK9-CYCLINT1 (Homo sapiens)
- Construct: purchased Carna
- Sequence (P50750 whole entry): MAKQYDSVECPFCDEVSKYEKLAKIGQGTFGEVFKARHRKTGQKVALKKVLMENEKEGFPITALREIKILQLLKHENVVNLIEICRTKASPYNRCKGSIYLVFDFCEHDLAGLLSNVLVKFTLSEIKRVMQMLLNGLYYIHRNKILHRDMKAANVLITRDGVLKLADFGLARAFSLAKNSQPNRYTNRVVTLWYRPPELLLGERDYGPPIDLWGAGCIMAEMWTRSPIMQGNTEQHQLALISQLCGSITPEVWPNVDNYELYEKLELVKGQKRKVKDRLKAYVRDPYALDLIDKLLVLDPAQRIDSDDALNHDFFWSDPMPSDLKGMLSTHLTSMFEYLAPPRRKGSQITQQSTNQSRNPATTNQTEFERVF
- Sequence (O60563 whole entry partner): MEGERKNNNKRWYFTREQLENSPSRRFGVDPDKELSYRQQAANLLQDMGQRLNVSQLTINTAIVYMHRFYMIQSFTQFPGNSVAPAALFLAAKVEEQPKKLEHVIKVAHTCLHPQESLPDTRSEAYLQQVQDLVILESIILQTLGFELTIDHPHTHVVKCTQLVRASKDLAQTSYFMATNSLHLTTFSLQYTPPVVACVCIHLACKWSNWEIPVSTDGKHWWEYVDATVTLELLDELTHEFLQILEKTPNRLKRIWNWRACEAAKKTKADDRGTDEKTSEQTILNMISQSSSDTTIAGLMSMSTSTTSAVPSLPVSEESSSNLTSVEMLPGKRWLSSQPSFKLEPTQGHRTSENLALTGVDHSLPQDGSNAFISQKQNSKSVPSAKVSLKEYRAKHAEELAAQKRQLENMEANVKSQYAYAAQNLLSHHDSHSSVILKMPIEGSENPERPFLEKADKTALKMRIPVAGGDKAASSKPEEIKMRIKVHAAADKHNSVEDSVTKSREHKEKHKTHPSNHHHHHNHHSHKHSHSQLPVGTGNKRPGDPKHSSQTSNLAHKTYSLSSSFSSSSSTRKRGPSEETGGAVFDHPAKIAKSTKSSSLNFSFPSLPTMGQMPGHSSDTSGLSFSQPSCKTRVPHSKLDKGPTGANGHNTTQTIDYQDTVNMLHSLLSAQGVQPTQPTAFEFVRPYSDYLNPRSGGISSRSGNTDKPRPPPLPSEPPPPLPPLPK
- TEST_METHOD_NOTES: CDK inhibition assay (microfluidic LabChip, IC50 format)
- Format: biochemical
- TEST_CONDITIONS: Table 4a; read-out: CDK9 CyclinT1 IC50
pIC50: −log10 of the molar value.
MEASUREMENT_NAME: pIC50

The cases that follow already have their pIC50 on record.
# SAMPLE_SMILES, TGT, pIC50
records = [
    ("Cc1cc(N2CCN(C)CC2)ccc1Nc1ncc2c(n1)N(C1CCCC1)C(=O)[C@]1(CCNC1=O)C2", "CDK9-CYCLINT1 (Homo sapiens)", 7.19),
    ("O=C1NCC[C@@]12Cc1cnc(Nc3ccc(OCCN4CCCC4)c(F)c3)nc1N(C1CCCC1)C2=O", "CDK9-CYCLINT1 (Homo sapiens)", 8.55),
    ("Cc1cc(Nc2ncc3c(n2)N(C2CCCC2)C(=O)[C@]2(CCNC2=O)C3)ccc1N1CCN(C)CC1", "CDK9-CYCLINT1 (Homo sapiens)", 8.44),
    ("Cc1cc(N2CCN(C(C)C)CC2)ccc1Nc1ncc2c(n1)N(C1CCCC1)C(=O)[C@]1(CCNC1=O)C2", "CDK9-CYCLINT1 (Homo sapiens)", 7.14),
    ("CN(C)[C@H]1CCN(c2ccc(Nc3ncc4c(n3)N(C3CCCC3)C(=O)[C@]3(CCNC3=O)C4)cc2)C1", "CDK9-CYCLINT1 (Homo sapiens)", 8.16),
]

(I) CN1CCN(c2ccc(Nc3ncc4c(n3)N(C3CCCC3)C(=O)[C@]3(CCNC3=O)C4)nc2)CC1
(II) CN(C)[C@@H]1CCN(c2ccc(Nc3ncc4c(n3)N(C3CCCC3)C(=O)[C@]3(CCNC3=O)C4)cn2)C1
Kindly identify which of I and II has the larger recorded pIC50 value. The response must carry the label of the picked entry. II
(II: 8.44, I: 6.50)
